The reported numbers originate from the supplement of paper PMC11908140.

B1: library; numbered along this chain (parent)
chain: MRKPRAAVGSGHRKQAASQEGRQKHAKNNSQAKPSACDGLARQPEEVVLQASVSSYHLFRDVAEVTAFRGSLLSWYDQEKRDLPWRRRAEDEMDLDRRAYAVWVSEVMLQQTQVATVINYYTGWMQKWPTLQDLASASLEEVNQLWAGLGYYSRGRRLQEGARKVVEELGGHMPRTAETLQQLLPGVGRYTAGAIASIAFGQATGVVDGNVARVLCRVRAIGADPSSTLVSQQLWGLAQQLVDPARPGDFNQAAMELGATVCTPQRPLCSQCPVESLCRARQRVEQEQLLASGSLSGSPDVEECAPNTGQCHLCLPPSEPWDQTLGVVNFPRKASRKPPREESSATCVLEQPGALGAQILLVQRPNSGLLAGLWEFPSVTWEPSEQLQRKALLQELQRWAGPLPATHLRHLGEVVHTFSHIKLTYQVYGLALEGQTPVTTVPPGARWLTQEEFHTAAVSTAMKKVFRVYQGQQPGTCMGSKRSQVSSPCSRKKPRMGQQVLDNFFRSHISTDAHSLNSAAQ

Variants of: B1
experiment: 8OG:A repair function score (normalized; synonymous = 0, nonsense = -1) (normalized log-likelihood score); higher = more repair activity (WT-like);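 further: cells sorted at 72 h after reporter transfection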
assay conditions: with 8OG:A DNA repair reporter (GFP) in HEK-293 MUTYH KO cells
measured endpoint: 8OG:A repair function score
Give a plain numeric answer without units written out.

Entry "V414P" — recorded 8OG:A repair function score = -1.01

Entry "G161S" — recorded 8OG:A repair function score = -0.13

Entry "R364A" — recorded 8OG:A repair function score = -0.285

Entry "L257Y" — recorded 8OG:A repair function score = -0.76

Entry "L403N" — recorded 8OG:A repair function score = -0.0773

Entry "P494V" — recorded 8OG:A repair function score = -0.0025

Entry "Y151V" — recorded 8OG:A repair function score = -0.583

Entry "V415P" — recorded 8OG:A repair function score = -0.0885

Entry "L184Q" — recorded 8OG:A repair function score = -0.899

Entry "H172W" — recorded 8OG:A repair function score = -0.21

Entry "G148V" — recorded 8OG:A repair function score = -1.08

Entry "R69T" — recorded 8OG:A repair function score = -0.172

Entry "E79N" — recorded 8OG:A repair function score = -0.0384

Entry "S507P" — recorded 8OG:A repair function score = 0.0118

Entry "A519P" — recorded 8OG:A repair function score = 0.0175

Entry "R154F" — recorded 8OG:A repair function score = -1.05

Entry "L393E" — recorded 8OG:A repair function score = -0.395

Entry "Q426L" — recorded 8OG:A repair function score = -0.0573

Entry "V114Q" — recorded 8OG:A repair function score = -0.313

Entry "A253C" — recorded 8OG:A repair function score = -0.853

Entry "V327M" — recorded 8OG:A repair function score = -0.375

Entry "Y120Q" — recorded 8OG:A repair function score = -0.154

Entry "L396E" — recorded 8OG:A repair function score = -1.07

Entry "G201N" — recorded 8OG:A repair function score = 0.0301

Entry "Q351F" — recorded 8OG:A repair function score = -0.101

Entry "L234R" — recorded 8OG:A repair function score = -1.01

Entry "L315K" — recorded 8OG:A repair function score = -0.116

Entry "L234N" — recorded 8OG:A repair function score = -0.855

Entry "E46A" — recorded 8OG:A repair function score = 0.0651

Entry "E256T" — recorded 8OG:A repair function score = -0.514

Entry "L355N" — recorded 8OG:A repair function score = 0.0266

Entry "H420M" — recorded 8OG:A repair function score = -0.23

Entry "T424K" — recorded 8OG:A repair function score = -0.203

Entry "D82T" — recorded 8OG:A repair function score = -0.0186

Entry "T455P" — recorded 8OG:A repair function score = -0.714

Entry "V284Y" — recorded 8OG:A repair function score = -0.0139

Entry "V211W" — recorded 8OG:A repair function score = -0.594

Entry "F59M" — recorded 8OG:A repair function score = -0.121

Entry "N503T" — recorded 8OG:A repair function score = 0.00666

Entry "E385G" — recorded 8OG:A repair function score = -0.126

Entry "A431L" — recorded 8OG:A repair function score = 0.0682

Entry "R156K" — recorded 8OG:A repair function score = 0.00226

Entry "Q473M" — recorded 8OG:A repair function score = 0.0265

Entry "T424P" — recorded 8OG:A repair function score = -0.685

Entry "G171V" — recorded 8OG:A repair function score = -0.443

Entry "Y76L" — recorded 8OG:A repair function score = -1.17
